// provenance: ChEMBL document CHEMBL1201862

# Tested on: CAKI-1
# PROTOCOL SUMMARY: NCI tumour cell line growth inhibition, 48 h
Active and inactive are the calls of the source. Cut-off read from the data, not from the text of the source: active = GI50 up to about 1.1 µM and inactive = higher.
Classes used: active, inactive

1. Cn1c2n/c(=N\c3ccc(Cl)cc3)[n+]3ccc4ccccc4c3c-2c([O-])n1-c1ccccc1 :: inactive
2. COc1cc(OC(=O)c2c(O)cc(O)c(O)c2C)cc(C)c1C(=O)Oc1cc(C)c(C(=O)O)c(O)c1 :: inactive
3. N#Cc1nc(/C=C/c2nc(C#N)c(N)o2)oc1N :: inactive
4. CCc1nc(N)nc(N)c1-c1ccc(N2CCOCC2)c(N=[N+]=[N-])c1 :: inactive
5. C=C(C)[C@H]1CC[C@@]23O[C@@H]2[C@@H](C[C@@]2(C)CC(=O)[C@H](CC(=O)C1)O2)OC(=O)[C@@]12CC[C@H](C(=C)C)CC(=O)C[C@H]4O[C@](C)(CC4=O)C[C@@H](OC3=O)[C@@H]1O2 :: inactive
6. O=C(O)[C@H]1NC[C@@H]2ON=C(Br)[C@@H]21 :: inactive
7. CC(NC1=NCCO1)c1ccsc1 (stereo not given) :: inactive
8. CC(=O)C1Cn2c(nc3ccccc32)C[Se]1 (stereo not given) :: inactive
9. Nc1ccc2c(c1)N(C(=O)CCCC(=O)N1CC(CCl)c3ccc(N)cc31)CC2CCl (stereo not given) :: active
10. CC1(C)C(c2ccccc2)=[N+]([O-])C(C)(C)N1O :: inactive
11. NC(CCSCC(F)(F)F)C(=O)O (stereo not given) :: inactive
12. N#C/C(C(=O)Nc1ccccc1)=C(/N)N1CCCC1 :: inactive
13. N#CC1([N+](=O)[O-])C=C1c1ccccc1 (stereo not given) :: inactive
14. O=C(O)CCc1nc2c(n1-c1ccccc1)C(=O)c1ccccc1C2=O :: inactive
15. COC(=O)C(=O)C(C#N)c1ccc(Cl)c(Cl)c1 (stereo not given) :: inactive
16. O=C(Cn1c2ccc(Br)cc2c2nc3ccccc3nc21)NCc1ccccc1 :: inactive
17. COC(=O)NC(=O)c1cn(C2OC(CO)C(O)C2O)c(=O)[nH]c1=O (stereo not given) :: inactive
18. CC1(C)C(=O)N=C(N)N1C(=O)OCc1ccccc1 :: inactive
19. COc1cc(/C=C2\C[C@H]3[C@@H]4CC=C5C=C(N6CCCC6)CC[C@]5(C)[C@H]4CC[C@]3(C)C2=O)cc(OC)c1OC :: inactive
20. O=C(O)C(=Cc1ccc(-c2ccccc2)cc1)C(=O)O :: inactive
21. C/C(=N\NC(=N)N)C(CN(CC(C)C)CC(C)C)C(=O)Nc1ccc(C)cc1C (stereo not given) :: inactive
22. Cc1nc(=O)n2c(C)n[nH]c2c1C(=O)Nc1cc(Cl)cc(Cl)c1 :: inactive
23. CC(C)C(C(=O)O)N1C(=O)c2ccccc2C1=O (stereo not given) :: inactive
24. O=c1oc2ccc([N+](=O)[O-])cc2c(Nc2ccc3c(c2)Sc2ccccc2O3)c1[N+](=O)[O-] :: inactive
25. O=C1CC(=O)NC(NN2C(=O)CSC2c2ccc(Cl)cc2)=N1 (stereo not given) :: inactive
26. COc1cc(C2c3cc4c(cc3OC(O)C2C)OCO4)cc(OC)c1OC (stereo not given) :: active
27. O=[N+]([O-])c1ccc2[nH]c(=S)[nH]c(=S)c2c1 :: inactive
28. COc1cc(OC)c2nccc(NCCCN(C)C)c2c1[N+](=O)[O-] :: inactive
29. Cc1ccc(N(C(=O)Nc2ccc(F)c(Cl)c2)C2=NCC(C)S2)cc1 (stereo not given) :: inactive
30. Nc1nnc2ccc(Cl)cc2[n+]1[O-] :: inactive
31. C=C1C(=O)OC2/C=C(\C)C3OC3/C=C(/C(=O)OC)C(O)C(OC(=O)C3(C)OC3C)C12 (stereo not given) :: active
32. CN(C)Cc1cc(C(=O)/C=C/c2c(F)cccc2Cl)cc(CN(C)C)c1O :: inactive
33. Cc1ccc2c(c1)NC(=O)CCSSCCC(=O)N2 :: inactive
34. CC1C2CC(CC2=O)C1(C)C (stereo not given) :: inactive
35. COc1c(C)c(C/C=C(\C)CC/C=C(\C)CC/C=C(\C)CC/C=C(\C)CCC=C(C)C)c(OC)c(OC)c1OC :: inactive
36. COC1OC(Cn2cc([N+](=O)[O-])nc2C)C(O)C(O)C1O (stereo not given) :: inactive
37. Cc1ccc(/C=C2\CCCC(CN(C)C)C2=O)cc1 (stereo not given) :: inactive
38. CCOC(=O)C(C(=O)OCC)c1cc(-c2cc3ccccc3o2)oc(=O)c1C#N :: inactive
39. CC(=O)c1sc2c(c1OC(=O)c1ccco1)c(=O)n(-c1ccccc1)c(=S)n2-c1ccccc1 :: inactive
40. CC(=O)O[C@H]1C(=O)[C@@]2(C)C(C(OC(=O)c3ccccc3)[C@]3(O)CC(OC(=O)[C@H](OC(=O)CCC(=O)O)C(NC(=O)c4ccccc4)c4ccccc4)C(C)=C1C3(C)C)C1(OC(C)=O)COC1C[C@@H]2O (stereo not given in full) :: inactive

* * *

# Tested on: ACHN
# PROTOCOL SUMMARY: NCI tumour cell line growth inhibition, 48 h
Calls of active or inactive are those of the source. No stated cut-off is given here; in the data, active = GI50 up to about 1.1 µM and inactive = higher.
MEASURE: GI50

1) CCOC(=O)Cc1ccc(Nc2nc3cc(F)c(F)cc3nc2C(=O)OCC)cc1 :: 18.4 µM (inactive)
2) COC(=O)C1C(O)CCC2CN3CCc4c([nH]c5cccc(OC)c45)C3CC21 (stereo not given) :: > 100 µM (inactive)
3) Cc1cnc2c(c1C)C(=O)c1ccccc1C2=O :: 36.4 µM (inactive)
4) O=c1c(=O)c2cscc2c1=O :: 4.69 µM (inactive)
5) O=C1/C(=C/c2ccc(Cl)cc2)N=C(c2ccccc2)N1c1ccc(S(=O)(=O)Nc2nccs2)cc1 :: 62.5 µM (inactive)
6) COc1cc(/C=C2\C[C@H]3[C@@H]4CC=C5C=C(N6CCCC6)CC[C@]5(C)[C@H]4CC[C@]3(C)C2=O)cc(OC)c1OC :: 2.32 µM (inactive)
7) CCOC(=O)c1c2cccccc2n2c(=O)cc(C)nc12 :: > 100 µM (inactive)
8) Cn1c2n/c(=N\c3ccc(Cl)cc3)[n+]3ccc4ccccc4c3c-2c([O-])n1-c1ccccc1 :: > 100 µM (inactive)
9) Cc1oc2c(c1C)S(=O)(=O)C(C#N)=CN2 :: > 100 µM (inactive)
10) Cc1ncc([N+](=O)[O-])n1CCNC(=O)CCC(=O)NCCCn1ccnc1[N+](=O)[O-] :: > 100 µM (inactive)

* * *

# Tested on: OVCAR-3
# PROTOCOL SUMMARY: NCI tumour cell line growth inhibition, 48 h
Active and inactive are the calls of the source. Rule as the data show it: active = GI50 up to about 1.1 µM and inactive = higher.
MEASURE: GI50

1) O=C1/C(=C/c2ccccc2O)N=C(c2ccccc2)N1C1Nc2cc3c(cc2S1)NC(N1C(=O)/C(=C/c2ccccc2O)N=C1c1ccccc1)S3 (stereo not given) :: 55.1 µM (inactive)
2) C=CCC(C(=O)O)c1ccccc1 (stereo not given) :: > 100 µM (inactive)
3) CSc1ccc(C(=O)C(=O)c2ccc(SC)s2)s1 :: > 10 µM (inactive)
4) c1ccc(C2=NN(c3ccccc3)C3(S2)SC(c2ccccc2)(c2ccccc2)c2ccccc23)cc1 (stereo not given) :: > 100 µM (inactive)
5) CCOC(=O)C(NC(=O)CC(C)C)(N1CCN(c2cc3c(cc2F)c(=O)c(C(=O)O)cn3C2CC2)CC1)C(F)(F)F (stereo not given) :: 14.7 µM (inactive)
6) CC(C)CC(N)C(=O)OCN1C(=O)C2C3C=CC(C2C1=O)C1C2C(=O)N(COC(=O)C(N)CC(C)C)C(=O)C2C31 (stereo not given) :: > 100 µM (inactive)
7) COc1ccc(C[n+]2cccc(O)c2)cc1 :: > 100 µM (inactive)
8) Cc1oc2c(c1C)S(=O)(=O)C(C#N)=CN2 :: > 100 µM (inactive)
9) N#C/C(C(=O)Nc1ccccc1)=C(/N)N1CCCC1 :: > 100 µM (inactive)
10) C=C[C@@H]1C(CO)=CCC2[C@H]1CCC1C(C)(C)C(=O)CC[C@]21C (stereo not given in full) :: > 100 µM (inactive)

* * *

# Test system: NCI-H23
# PROTOCOL SUMMARY: NCI tumour cell line growth inhibition, 48 h
Activity calls are given as the source filed them. Cut-off read from the data, not from the text of the source: active = GI50 up to about 1.1 µM and inactive = higher.
MEASURE: GI50

1. CN1CCN(CN2C(=O)C3C4C=CC(C3C2=O)C2C(=O)N(CN3CCN(C)CC3)C(=O)C42)CC1 (stereo not drawn) :: > 49.8 µM (inactive)
2. O=C1/C(=C/c2ccccc2O)N=C(c2ccccc2)N1C1Nc2cc3c(cc2S1)NC(N1C(=O)/C(=C/c2ccccc2O)N=C1c1ccccc1)S3 (stereo not drawn) :: 31.9 µM (inactive)
3. C=C1C(=O)CCC1C(=O)O (stereo not drawn) :: > 100 µM (inactive)
4. Fc1cc(C2=Nn3c(CNc4ccc(Cl)cc4)nnc3S/C2=C\c2ccc(-c3ccc(Cl)cc3)o2)c(Cl)cc1Cl :: 81.8 µM (inactive)
5. NC(CCSCC(F)(F)F)C(=O)O (stereo not drawn) :: > 100 µM (inactive)
6. O=C1CC(c2ccc[nH]2)=NN1c1ccccc1 :: > 100 µM (inactive)
7. CNC(=O)c1nn[nH]c1O :: > 100 µM (inactive)
8. O=c1oc2ccc([N+](=O)[O-])cc2c(Nc2ccc3c(c2)Sc2ccccc2O3)c1[N+](=O)[O-] :: 18.6 µM (inactive)
